SYSTEM_UNDER_TEST: T1, human PAC1 (human, UniProt P41586 21-468)
T1 sequence (looked up): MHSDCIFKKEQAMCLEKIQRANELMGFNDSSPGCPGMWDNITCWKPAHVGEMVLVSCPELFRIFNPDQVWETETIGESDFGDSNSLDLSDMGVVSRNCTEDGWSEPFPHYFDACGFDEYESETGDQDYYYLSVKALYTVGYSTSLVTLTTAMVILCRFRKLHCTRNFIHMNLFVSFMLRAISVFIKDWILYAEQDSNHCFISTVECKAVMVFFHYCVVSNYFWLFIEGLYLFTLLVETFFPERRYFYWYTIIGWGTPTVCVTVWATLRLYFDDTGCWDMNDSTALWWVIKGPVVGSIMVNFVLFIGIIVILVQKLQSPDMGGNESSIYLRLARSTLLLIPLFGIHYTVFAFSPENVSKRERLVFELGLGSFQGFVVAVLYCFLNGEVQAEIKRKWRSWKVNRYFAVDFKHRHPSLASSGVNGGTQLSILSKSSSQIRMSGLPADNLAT
PROTOCOL_TEXT: cell-based or functional assay
Primed or numbered codes have the meaning given here. Where no end group is shown, it is not given here. [ ]: non-standard residue; d: D form. Glc = glucose on Ser (glucosylated Ser); Lac′ = lactose, glycoside on Ser; Nva = CCC[C@H](N)C(=O)O; Sar = CNCC(=O)O
Below, each entry is listed alongside its reported cAMP stimulation Emax.
PROPERTY_NAME: cAMP stimulation Emax (%)

1. HSDGIFTDSYSRYRKQ[Nva]AVKKYLS(Glc)S(Glc)-NH2 [CRA-DV-3024] | 152
2. HSD[Sar]IFTDSYSRYRKQ[Nva]AVKKYLS(Lac′)-NH2 [CRA-TG-3027] | 134
3. HSDGIFTDSYSRYRKQ[Nva]AVKKYLS-NH2 (not fully specified) [CRA-DV-3022] | 198
4. HSDAIFTDSYSRYRKQ[Nva]AVKKYLS(Lac′)-NH2 [CRA-TG-3026] | 181

Source of measurements: patent US20240352075A1
